Sourced from patent US4546176A

# System: Pseud. aeruginosa EP-01
# TEST_DETAILS: Antibacterial activities (MIC), Pseud. aeruginosa EP-01
# Assay type: cell-based
# CONDITION_INFO: Pseudomonas aeruginosa, EP01
Assignment: determine reported MIC for the given molecules.

Problem: Which MIC reading was recorded for the molecule "Cn1nnnc1SCC1=C(C(=O)O)N2C(=O)[C@@H](NC(=O)[C@H](NC(=O)c3coc4cc(O)c(O)cc4c3=O)c3ccc(OCC(=O)O)cc3)[C@H]2SC1" ?
Result: ≤ 0.05 µg/mL

Problem: Do the same for "Cn1nnnc1SCC1=C(C(=O)O)N2C(=O)[C@@H](NC(=O)[C@H](NC(=O)c3cc4ccc(O)c(O)c4oc3=O)c3ccc(OCC(=O)O)cc3)[C@H]2SC1" please
Result: ≤ 0.05 µg/mL

Problem: Same thing, different molecule: "Cn1nnnc1SCC1=C(C(=O)O)N2C(=O)[C@@H](NC(=O)[C@H](NC(=O)c3coc4c(O)c(O)ccc4c3=O)c3ccc(OCC(=O)O)cc3)[C@H]2SC1"
Result: ≤ 0.05 µg/mL

* * *

# System: Proteus morganii EP-14
# TEST_DETAILS: Antibacterial activities (MIC), Proteus morganii EP-14
# Format: cell-based
# CONDITION_INFO: Morganella morganii, EP14
VALUE_KIND: MIC (µg/mL)
Provide only the numeric value, understood in µg/mL.

Problem: // MIC lookup, key: "CC(=O)OCC1=C(C(=O)O)N2C(=O)[C@@H](NC(=O)[C@H](NC(=O)c3coc4c(OC(C)=O)c(OC(C)=O)ccc4c3=O)c3ccc(OCC(=O)O)cc3)[C@H]2SC1"
Result: 12.5

Problem: Next: "NC(=O)c1cc[n+](CC2=C(C(=O)[O-])N3C(=O)[C@@H](NC(=O)[C@H](NC(=O)c4coc5cc(O)c(O)cc5c4=O)c4ccc(OCC(=O)O)cc4)[C@H]3SC2)cc1"
Result: 6.25

Problem: And what about the molecule "CO[C@@]1(NC(=O)[C@H](NC(=O)c2c(C)oc3cc(O)c(O)cc3c2=O)c2ccc(OCC(=O)O)cc2)C(=O)N2C(C(=O)O)=C(CSc3nnnn3CC(=O)O)CS[C@@H]21" ?
Result: 3.13

Problem: Param item: "O=C(O)COc1ccc([C@@H](NC(=O)c2coc3c(O)c(O)ccc3c2=O)C(=O)N[C@@H]2C(=O)N3C(C(=O)O)=C(CSc4nnnn4CC(=O)O)CS[C@H]23)cc1"
Result: 6.25

Problem: Likewise for "CCOC(=O)Oc1cc2oc(C)c(C(=O)N[C@@H](C(=O)N[C@@H]3C(=O)N4C(C(=O)O)=C(COC(C)=O)CS[C@H]34)c3ccc(OCC(=O)O)cc3)c(=O)c2cc1OC(=O)OCC" ?
Result: 12.5

Problem: # repeat for "CC(=O)Oc1ccc2c(=O)c(C(=O)N[C@@H](C(=O)N[C@@H]3C(=O)N4C(C(=O)O)=C(CSc5nnnn5CC(=O)O)CS[C@H]34)c3ccc(OCC(=O)O)cc3)coc2c1OC(C)=O"
Result: 6.25

Problem: // query: "CCn1cc(C(=O)N[C@@H](C(=O)N[C@@H]2C(=O)N3C(C(=O)O)=C(CSc4nnnn4C)CS[C@H]23)c2ccc(OCC(=O)O)cc2)c(=O)c2cc(O)c(O)cc21"
Result: 1.56

Problem: "Cc1oc2c(O)c(O)ccc2c(=O)c1C(=O)N[C@@H](C(=O)N[C@@H]1C(=O)N2C(C(=O)O)=C(CSc3nnnn3CC(=O)O)CS[C@H]12)c1ccc(OCC(=O)O)cc1" ?
Result: 6.25

Problem: And what about the molecule "CO[C@@]1(NC(=O)[C@H](NC(=O)c2c(C)oc3cc(O)c(O)cc3c2=O)c2ccc(OCC(=O)O)cc2)C(=O)N2C(C(=O)[O-])=C(C[n+]3ccccc3)CS[C@@H]21" ?
Result: 6.25

* * *

Consider the following MIC values measured on Staph. aureus 209-P.
Unit µg/mL implied. Number only.

Problem: Reported MIC for "CC(=O)Oc1ccc2c(=O)c(C(=O)N[C@@H](C(=O)N[C@@H]3C(=O)N4C(C(=O)O)=C(CSc5nnnn5CC(=O)O)CS[C@H]34)c3ccc(OCC(=O)O)cc3)c(C)oc2c1OC(C)=O" : what is it?
Result: 100

Problem: How about this compound: "CO[C@@]1(NC(=O)[C@H](NC(=O)c2c(C)oc3cc(O)c(O)cc3c2=O)c2ccc(OCC(=O)O)cc2)C(=O)N2C(C(=O)[O-])=C(C[n+]3ccccc3)CS[C@@H]21"
Result: 100

Problem: Also, "CO[C@@]1(NC(=O)[C@H](NC(=O)c2c(C)oc3c(O)c(O)ccc3c2=O)c2ccc(OCC(=O)O)cc2)C(=O)N2C(C(=O)O)=C(CSc3nnnn3CC(=O)O)CS[C@@H]21" please.
Result: 100

Problem: Let us now turn to CCn1cc(C(=O)NC(C(=O)NC2C(=O)N3C(C(=O)O)=C(CSc4nnnn4C)CSC23)c2ccc(OCC(=O)O)cc2)c(=O)c2cc(OC(C)=O)c(OC(C)=O)cc21 (stereo not shown)
Result: 12.5

Problem: Note, next up: "Cn1nnnc1SCC1=C(C(=O)O)N2C(=O)[C@@H](NC(=O)[C@H](NC(=O)c3coc4c(O)c(O)ccc4c3=O)c3ccc(OCC(=O)O)cc3)[C@H]2SC1"
Result: 25

Problem: Repeat for the following compound: "CC(=O)OCC1=C(C(=O)O)N2C(=O)[C@@H](NC(=O)[C@H](NC(=O)c3c(C)oc4cc(O)c(O)cc4c3=O)c3ccc(OCC(=O)O)cc3)[C@H]2SC1"
Result: 50

Problem: Can you handle "NC(=O)c1cc[n+](CC2=C(C(=O)[O-])N3C(=O)[C@@H](NC(=O)[C@H](NC(=O)c4coc5cc(O)c(O)cc5c4=O)c4ccc(OCC(=O)O)cc4)[C@H]3SC2)cc1" next?
Result: 25
